- testName: self-splicing fitness, log relative to wild type (ln ratio); higher = more splicing; Tetrahymena group I intron in knt gene, E. coli kanamycin selection, DiMSum; sequences stand for … in CUCUCU…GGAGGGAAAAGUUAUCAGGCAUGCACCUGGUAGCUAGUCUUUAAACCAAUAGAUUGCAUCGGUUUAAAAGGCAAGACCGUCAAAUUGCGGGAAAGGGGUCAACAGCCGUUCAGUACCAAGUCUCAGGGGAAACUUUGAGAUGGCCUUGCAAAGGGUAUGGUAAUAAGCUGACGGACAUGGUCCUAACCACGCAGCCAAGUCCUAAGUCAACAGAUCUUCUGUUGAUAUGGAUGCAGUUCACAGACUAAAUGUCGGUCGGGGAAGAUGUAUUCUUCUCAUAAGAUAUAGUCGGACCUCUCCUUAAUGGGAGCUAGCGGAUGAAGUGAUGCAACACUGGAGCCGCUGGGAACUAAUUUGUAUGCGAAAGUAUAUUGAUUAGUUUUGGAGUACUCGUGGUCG;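 note: selection with 25 µg/mL kanamycin versus none on LB agar overnight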
- experimentalParameters: 37 °C
Below, each of the sequences is paired with its reported self-splicing fitness (ln) value.
# print the numeric value only

Would you please look over these solved cases?
ACGAAGCAAUAUUACGCGUG : -0.442
GUUGAGCAAUAUUACGUACA : -2.37

Consider CUCCAGCAAUAUUACGCUCU . Its measured self-splicing fitness (ln) is -3.04

Consider GACGAGCAAUAUUACGCACC . Its measured self-splicing fitness (ln) is -0.796

Consider GACUAGCAAUAUUACGGAAA . Its measured self-splicing fitness (ln) is -0.989

Consider ACCUAGCAAUAUUACGAUGA . Its measured self-splicing fitness (ln) is -0.609

Consider GACGAGCAAUAUUACGCGGA . Its measured self-splicing fitness (ln) is -2.87

Consider CUCCAGCAAUAUUACGGUGC . Its measured self-splicing fitness (ln) is -2.27

Consider AAGUAGCAAUAUUACGGUUG . Its measured self-splicing fitness (ln) is -2.16

Consider AACGAGCAAUAUUACGGCGU . Its measured self-splicing fitness (ln) is -0.572

###

- testName: self-splicing fitness, log relative to wild type (ln ratio); higher = more splicing; Tetrahymena group I intron in knt gene, E. coli kanamycin selection, DiMSum; sequences stand for … in CUCUCU…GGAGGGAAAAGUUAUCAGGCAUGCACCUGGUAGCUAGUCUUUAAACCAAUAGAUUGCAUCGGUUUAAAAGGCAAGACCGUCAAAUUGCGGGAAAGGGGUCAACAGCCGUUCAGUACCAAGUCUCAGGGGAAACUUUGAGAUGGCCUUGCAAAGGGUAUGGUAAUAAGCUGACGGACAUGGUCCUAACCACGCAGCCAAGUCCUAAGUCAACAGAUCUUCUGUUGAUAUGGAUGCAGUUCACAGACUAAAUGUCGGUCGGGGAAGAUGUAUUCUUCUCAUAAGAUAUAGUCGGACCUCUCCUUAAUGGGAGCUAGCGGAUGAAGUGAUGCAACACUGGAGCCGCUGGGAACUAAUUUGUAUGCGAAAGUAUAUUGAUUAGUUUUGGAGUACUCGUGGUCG
- experimentalParameters: 37 °C
Below, each of the sequences is paired with its reported self-splicing fitness (ln) value.
# print the numeric value only

AAAUAGCAAUAUUACGCCUG : -1.03

Consider CUUAAGCAAUAUUACGGUGG . Its measured self-splicing fitness (ln) is -0.937

Consider CCAAAGCAAUAUUACGUCGC . Its measured self-splicing fitness (ln) is -2.29

###

- testName: self-splicing fitness, log relative to wild type (ln ratio); higher = more splicing; Tetrahymena group I intron in knt gene, E. coli kanamycin selection, DiMSum; sequences stand for … in CUCUCU…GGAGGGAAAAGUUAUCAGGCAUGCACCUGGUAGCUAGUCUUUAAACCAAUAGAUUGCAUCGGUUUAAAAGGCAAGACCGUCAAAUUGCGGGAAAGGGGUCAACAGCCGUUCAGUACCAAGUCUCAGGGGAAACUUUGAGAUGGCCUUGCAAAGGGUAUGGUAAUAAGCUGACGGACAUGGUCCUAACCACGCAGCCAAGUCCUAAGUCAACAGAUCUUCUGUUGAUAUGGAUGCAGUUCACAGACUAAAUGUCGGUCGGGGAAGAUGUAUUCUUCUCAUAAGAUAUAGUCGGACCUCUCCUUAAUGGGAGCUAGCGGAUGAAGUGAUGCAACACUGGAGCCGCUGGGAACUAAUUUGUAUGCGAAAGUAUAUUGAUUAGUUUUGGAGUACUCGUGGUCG
- experimentalParameters: 30 °C
Below, each of the sequences is paired with its reported self-splicing fitness (ln) value.
# print the numeric value only

Would you please look over these solved cases?
GAUCAGCAAUAUUACGCCCU : -0.299
AUUUAGCAAUAUUACGAACG : -0.287
UCCGAGCAAUAUUACGACCU : -3.35
ACGUAGCAAUAUUACGUCAG : -3.39
GUCCAGCAAUAUUACGGCCG : -3.67

Consider GGACAGCAAUAUUACGCUCU . Its measured self-splicing fitness (ln) is -2.19

Consider GGGGAGCAAUAUUACGAUUC . Its measured self-splicing fitness (ln) is -1.52

Consider ACAAAGCAAUAUUACGGUAU . Its measured self-splicing fitness (ln) is -3.56

Consider GCUCAGCAAUAUUACGUCUG . Its measured self-splicing fitness (ln) is -2.36

Consider CAUGAGCAAUAUUACGGGAC . Its measured self-splicing fitness (ln) is -2.99

Consider AAAAAGCAAUAUUACGUUCA . Its measured self-splicing fitness (ln) is -0.237

Consider UGUAAGCAAUAUUACGGGUU . Its measured self-splicing fitness (ln) is -3.86

###

- testName: self-splicing fitness, log relative to wild type (ln ratio); higher = more splicing; Tetrahymena group I intron in knt gene, E. coli kanamycin selection, DiMSum; sequences stand for … in CUCUCU…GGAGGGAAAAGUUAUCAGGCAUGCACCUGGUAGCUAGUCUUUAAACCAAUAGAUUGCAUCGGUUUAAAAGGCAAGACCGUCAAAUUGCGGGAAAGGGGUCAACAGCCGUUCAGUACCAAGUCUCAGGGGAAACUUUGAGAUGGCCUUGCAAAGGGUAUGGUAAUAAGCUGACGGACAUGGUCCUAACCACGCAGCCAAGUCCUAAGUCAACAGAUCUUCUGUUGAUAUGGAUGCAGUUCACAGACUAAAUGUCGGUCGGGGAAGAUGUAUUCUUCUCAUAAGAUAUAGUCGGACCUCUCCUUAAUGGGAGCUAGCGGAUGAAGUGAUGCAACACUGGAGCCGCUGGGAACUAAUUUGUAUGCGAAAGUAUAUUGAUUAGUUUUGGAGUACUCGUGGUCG
- experimentalParameters: 30 °C
Label Criterion not met if self-splicing fitness (ln) falls below -3; label Criterion met in every other case.

Example cases with answers are listed next.
AGCUAGCAAUAUUACGGGUU : Criterion met
UCCAAGCAAUAUUACGCAGU : Criterion met
UCCCAGCAAUAUUACGAUUC : Criterion not met
CCCCAGCAAUAUUACGACAG : Criterion not met
AGGUAGCAAUAUUACGUGUA : Criterion met
CGGUAGCAAUAUUACGCAAG : Criterion met

Consider now this further sequence.
(Q) Determine whether this sequence has self-splicing fitness (ln) no lower than -3: UAUGAGCAAUAUUACGUCCU
(A) Criterion met

###

- testName: self-splicing fitness, log relative to wild type (ln ratio); higher = more splicing; Tetrahymena group I intron in knt gene, E. coli kanamycin selection, DiMSum; sequences stand for … in CUCUCU…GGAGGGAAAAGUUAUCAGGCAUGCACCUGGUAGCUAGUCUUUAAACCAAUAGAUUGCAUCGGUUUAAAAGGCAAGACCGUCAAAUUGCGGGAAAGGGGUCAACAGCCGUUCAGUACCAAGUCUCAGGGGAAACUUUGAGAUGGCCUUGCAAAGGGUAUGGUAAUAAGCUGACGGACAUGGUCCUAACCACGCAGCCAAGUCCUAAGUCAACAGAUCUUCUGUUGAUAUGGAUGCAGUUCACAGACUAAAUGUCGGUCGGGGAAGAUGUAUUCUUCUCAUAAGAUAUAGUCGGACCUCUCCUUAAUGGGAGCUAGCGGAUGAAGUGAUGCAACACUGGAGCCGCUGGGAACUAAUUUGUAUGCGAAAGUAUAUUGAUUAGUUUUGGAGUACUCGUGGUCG
- experimentalParameters: 37 °C
Below, each of the sequences is paired with its reported self-splicing fitness (ln) value.
# print the numeric value only

Would you please look over these solved cases?
CGUGAGCAAUAUUACGCCUG : -0.852
GAACAGCAAUAUUACGGUGG : -1.19
GGUCAGCAAUAUUACGGGUA : -0.686
CGCGAGCAAUAUUACGAAUG : -0.424
CAAAAGCAAUAUUACGACUU : -0.224

Alright, here's another sequence for you.
Consider AAUCAGCAAUAUUACGUGAA . Its measured self-splicing fitness (ln) is 0.257
